measured on: T1, Recombinant human B7-H3 (human, UniProt Q5ZPR3 29-466, limits assumed)
T1 construct: also called CD276; B7RP-2
T1 sequence: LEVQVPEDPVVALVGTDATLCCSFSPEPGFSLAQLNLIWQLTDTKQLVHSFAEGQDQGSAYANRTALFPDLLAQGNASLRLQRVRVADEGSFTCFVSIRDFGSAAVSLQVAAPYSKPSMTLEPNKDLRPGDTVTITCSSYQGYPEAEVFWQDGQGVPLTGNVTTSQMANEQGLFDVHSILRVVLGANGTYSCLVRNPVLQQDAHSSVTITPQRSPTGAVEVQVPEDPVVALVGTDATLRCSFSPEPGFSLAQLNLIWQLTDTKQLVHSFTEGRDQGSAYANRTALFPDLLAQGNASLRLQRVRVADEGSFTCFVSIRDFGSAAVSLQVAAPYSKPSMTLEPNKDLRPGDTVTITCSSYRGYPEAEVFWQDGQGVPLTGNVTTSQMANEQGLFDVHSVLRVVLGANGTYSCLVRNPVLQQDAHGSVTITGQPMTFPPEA
test protocol: SPR (such as Biacore T200), against human B7-H3
// Kd lookup, one value per entry

# binder, unit spec, Kd
data = [
    ("SCT-Da182 (antibody, V domains shown) VH: EVQLQQSGPELVKPGASMKISCKVSGFSFTGYTMNWVKQSHGKNLEWIGLINTYNGGTFYNQKFKAKATLTVDKSSSTAHMELLSLTSEDSAVYYCARSPGRYSMDYWGQGTSVTVSS VL: DIVLTQSPASLAVSLGQRATISCKASQSVDYNGYSYLNWYQQKPGQPPKLLIYPASNLESGIPARFSGSGSGTDFTLNIHPVEEEDAATYYCQQSKEDPYTFGGGTKLEIK", "nM", 10.9),
    ("SCT-Da333 (antibody, V domains shown) VH: QVQLQQSGPELVRPGVSVKISCKGSGYTFTDYAVHWVKQSHAKSLEWIGVINTYSGNTYYNLHFKGKATMTVDKSSSTAYMELARLTSEDSAIYYCARRRGSHRDAYFDYWGQGTTLTVSS VL: DIVMTQSHKFMSTSVGDRVSITCRASQDVSTAVAWYQQKPGQSPKLLIYSASYRYTGVPDRFTVSGSGTDFTFTISSVQAEDLAVYYCQQHYSTPWTFGGGTKLEIK", "nM", 380),
    ("SCT-Da192 (antibody, V domains shown) VH: EVQLQQSGPELVKPGASVKISCKTSGYTFTEYTMHWVKQSHGKSLEWIGVINPNNGGTTYNQKFKGKATLTVDKSSSTAYMELRSLTSEDSAVYYCARPHSLLRLRREFDYWGQGTTLTVSS VL: QIVLTQSPALMSASPGEKVTMTCSASSSVSYMYWYQQKPRSSPKPWIYLTSNLASGVPARFSGSGSGTSYSLTISSMEAEDAATYYCQQWSSNPLTFGAGTKLELK", "nM", 23.8),
    ("SCT-Da250 (antibody, V domains shown) VH: QGQMQQSGAELVKPGASVRLSCKTSGFTFSSFYISWLKQKPGQSLEWIAWIYAGPGYTSYNQKFTGKAQLTVDTSSSTAYMQFSSLTTEDSAIYYCARHVGRQRGYFDVWGAGTTVTVSS VL: DIVMTQSHKFMSTSVGDRVSITCKASQDVSTAVAWYQQKPGQSPKLLIYSASYRYTGVPDHFTVSGSGTDFTFTISSVQAEDLAVYYCQQHYSTPWTFGGGTKLEIK", "nM", 2.75),
]
